melting point under 60 °C gets true (1), anything at or over 60 °C gets false (0).

Use these answered entries as a reference point.
{"compound": "CC1=NS(=O)(=O)c2cc(Cl)ccc2N1 [Diazoxide]", "assigned-label": "false (0)"}
{"compound": "c1ccc2c(c1)Cc1cc3ccccc3cc1-2 [2,3-Benzofluorene Benzo[b]fluorene]", "assigned-label": "false (0)"}
{"compound": "CC(=O)O[C@H]1O[C@@H](COC(=O)c2ccccc2)[C@H](OC(=O)c2ccccc2)[C@@H]1OC(=O)c1ccccc1 [1-o-acetyl-2,3,5-tri-o-benzoyl-beta-D-ribofuranose]", "assigned-label": "false (0)"}
{"compound": "O=C(O)CCl [Chloroacetic acid]", "assigned-label": "false (0)"}
{"compound": "O=C(Cl)CCl [chloroacetyl chloride]", "assigned-label": "true (1)"}

Could you now consider this next compound?
[ask] Answer whether the compound ClC(Cl)=C(Cl)C(Cl)=C(Cl)Cl [hexachloro-1,3-butadiene] has melting point strictly less than 60 °C
[reply] true (1)
